# Tested on: MRSA ATCC 43300
# assay: MIC, broth microdilution (CO-ADD), MRSA
# Type: cell-based, methicillin-resistant S. aureus
# runParameters: Staphylococcus aureus; MRSA ATCC 43300; top dose 32 µg/mL; read-out: MIC MRSA
Quick reference for MIC among some compounds

-- ask Please respond with reported MIC (system MRSA ATCC 43300) for O=C(NCCCNCCCCCCCCNCCCNC(=O)c1c[nH]c2ccc(Br)cc12)c1c[nH]c2ccc(Br)cc12 [Compound 13d] .
-- reply ≤ 0.27 µM

-- ask Please respond with reported MIC (system MRSA ATCC 43300) for COc1ccc2[nH]cc(C(=O)NCCCNCCCCNCCCNC(=O)c3c[nH]c4ccc(OC)cc34)c2c1 [Compound 14a] .
-- reply 10.3 µM

-- ask Please respond with reported MIC (system MRSA ATCC 43300) for Cc1ccc2[nH]cc(C(=O)NCCCNCCCCCCCCCCCCNCCCNC(=O)c3c[nH]c4ccc(C)cc34)c2c1.O=C(O)C(F)(F)F.O=C(O)C(F)(F)F [Compound 15f] .
-- reply ≤ 0.29 µM

###

# Tested on: K. pneumoniae ATCC 700603
# assay: MIC, broth microdilution (CO-ADD), K. pneumoniae
# runParameters: top dose 32 µg/mL
Quick reference for MIC Kp among some molecules

See these solved cases before continuing.
> print(dat)
                                   molecule                 targetdesc  result
1  COc1cccc2c(C(=O)NCCCNCCCCCCCNCCCNC(=O)c3c[nH]c4c(OC)cccc34)c[nH]c12.O=C(O)C(F)(F)F.O=C(O)C(F)(F)F [Compound 17c]  K. pneumoniae ATCC 700603  >39 µM
2  Cc1ccc2[nH]cc(C(=O)NCCCNCCCCCCCCCCNCCCNC(=O)c3c[nH]c4ccc(C)cc34)c2c1 [Compound 15e]  K. pneumoniae ATCC 700603  >39 µM
3  O=C(NCCCNCCCCCCCCCCNCCCNC(=O)c1c[nH]c2ccccc12)c1c[nH]c2ccccc12.O=C(O)C(F)(F)F.O=C(O)C(F)(F)F [Compound 12e]  K. pneumoniae ATCC 700603  >40 µM
4  Cc1ccc2[nH]cc(C(=O)NCCCNCCCCNCCCNC(=O)c3c[nH]c4ccc(C)cc34)c2c1 [Compound 15a]  K. pneumoniae ATCC 700603  >43 µM

-- ask Could you please provide reported MIC Kp for O=C(NCCCNCCCCCCCNCCCNC(=O)c1c[nH]c2ccc(Br)cc12)c1c[nH]c2ccc(Br)cc12 [Compound 13c] ? Thanks!
-- reply >35 µM

-- ask Could you please provide reported MIC Kp for COc1ccc2[nH]cc(C(=O)NCCCNCCCCCCNCCCNC(=O)c3c[nH]c4ccc(OC)cc34)c2c1 [Compound 14b] ? Thanks!
-- reply >40 µM

-- ask Could you please provide reported MIC Kp for Cc1cccc2c(C(=O)NCCCNCCCCCCCNCCCNC(=O)c3c[nH]c4c(C)cccc34)c[nH]c12 [Compound 18c] ? Thanks!
-- reply >41 µM

###

Quick reference for MIC among some compounds
# Tested on: C. neoformans ATCC 208821

See these solved cases before continuing.
> print(dat)
                                   compound     result
1  COc1cccc2c(C(=O)NCCCNCCCCCCCCCCNCCCNC(=O)c3c[nH]c4c(OC)cccc34)c[nH]c12.O=C(O)C(F)(F)F.O=C(O)C(F)(F)F [Compound 17e]  ≤ 0.29 µM
2  OC(Cn1cncn1)(Cn1cncn1)c1ccc(F)cc1F [Fluconazole, reference compound]      26 µM
3  O=C(NCCCNCCCCCCCCNCCCNC(=O)c1c[nH]c2ccccc12)c1c[nH]c2ccccc12.O=C(O)C(F)(F)F.O=C(O)C(F)(F)F [Compound 12d]  ≤ 0.32 µM

-- ask Could you please provide reported MIC for COc1cccc2c(C(=O)NCCCNCCCCCCCCNCCCNC(=O)c3c[nH]c4c(OC)cccc34)c[nH]c12 [Compound 17d] ? Thanks!
-- reply ≤ 0.3 µM

-- ask Could you please provide reported MIC for O=C(NCCCNCCCCCCCCCCNCCCNC(=O)c1c[nH]c2ccccc12)c1c[nH]c2ccccc12.O=C(O)C(F)(F)F.O=C(O)C(F)(F)F [Compound 12e] ? Thanks!
-- reply ≤ 0.31 µM

-- ask Could you please provide reported MIC for COc1ccc2[nH]cc(C(=O)NCCCNCCCCCCCCCCNCCCNC(=O)c3c[nH]c4ccc(OC)cc34)c2c1.O=C(O)C(F)(F)F.O=C(O)C(F)(F)F [Compound 14e] ? Thanks!
-- reply ≤ 0.29 µM

-- ask Could you please provide reported MIC for Cc1ccc2[nH]cc(C(=O)NCCCNCCCCCCCCCCCCNCCCNC(=O)c3c[nH]c4ccc(C)cc34)c2c1.O=C(O)C(F)(F)F.O=C(O)C(F)(F)F [Compound 15f] ? Thanks!
-- reply ≤ 0.29 µM
